- Test system: Hepatocyte
- assay_remarks: Metabolic stability in cryopreserved human hepatocytes after 90 mins by radio-TLC assay
- Format: ADME, cell-based
- condition_summary: 1.5 h
observable: Stability

CCOc1cc2ncnc(Nc3ccccc3[18F])c2cc1OCC ... Stable
COc1cc2ncnc(Nc3ccc([18F])cc3)c2cc1OC ... Unstable
CCOc1cc2ncnc(Nc3cccc([18F])c3)c2cc1OCC ... Stable
COc1cc2ncnc(Nc3cccc([18F])c3)c2cc1OC ... Stable
CCOc1cc2ncnc(Nc3ccc([18F])cc3)c2cc1OCC ... Unstable

// query Indicate its recorded Stability; the molecule in question is `COc1cc2ncnc(Nc3ccccc3[18F])c2cc1OC`
// result Stable

* * *

- Tested on: Bone
- assay_remarks: Biodistribution in tumor-bearing nude SCID mouse bone at 1 to 2 MBq, iv after 1 hr postinjection
- Format: ADME, organism-based, Bone element
- condition_summary: in vivo
observable: Drug uptake (%)

Recorded results for 2 molecules are shown here.
COc1cc2ncnc(Nc3ccc([18F])cc3)c2cc1OC ... 5
COc1cc2ncnc(Nc3ccccc3[18F])c2cc1OC ... 2

1: CCOc1cc2ncnc(Nc3ccccc3[18F])c2cc1OCC
2: CCOc1cc2ncnc(Nc3ccc([18F])cc3)c2cc1OCC
// query Quick one: lower Drug uptake, 1 or 2 ? Use the label to indicate which entry you chose.
// result 1
